- System: Plasmodium falciparum
- test protocol: Antimalarial activity against chloroquine-sensitive Plasmodium falciparum Thai after 24 hrs
- Type: functional, organism-based
measurement label: pIC50
Formally, pIC50 is defined as -log10 of the concentration c, with c in mol/L.

Prompt: Reported pIC50, molecule "CC(=O)O[C@H]1CC[C@]2(C)[C@H]3CC=C4[C@@H]5[C@@H](C)[C@H](C)CC[C@]5(C(=O)NCCCN5CCN(CCCN(Cc6ccc(O)cc6)Cc6ccc(O)cc6)CC5)CC[C@@]4(C)[C@]3(C)CC[C@H]2C1(C)C" : ____
Response: 6.46

Prompt: Now the same for "CC(=O)O[C@H]1CC[C@]2(C)[C@H]3CC=C4[C@@H]5[C@@H](C)[C@H](C)CC[C@]5(C(=O)NCCCN5CCN(CCCN)CC5)CC[C@@]4(C)[C@]3(C)CC[C@H]2C1(C)C"
Response: 6.34

Prompt: Follow-up item: "CC(=O)O[C@H]1CC[C@]2(C)[C@H]3CC=C4[C@@H]5[C@@H](C)[C@H](C)CC[C@]5(C(=O)NCCCN5CCN(CCCN(CC6CC6)CC6CC6)CC5)CC[C@@]4(C)[C@]3(C)CC[C@H]2C1(C)C"
Response: 6.02

Prompt: Another molecule to look at: "CC(=O)O[C@H]1CC[C@]2(C)[C@H]3CC=C4[C@@H]5[C@@H](C)[C@H](C)CC[C@]5(C(=O)NCCCN5CCN(CCCNCc6ccc([N+](=O)[O-])cc6)CC5)CC[C@@]4(C)[C@]3(C)CC[C@H]2C1(C)C"
Response: 6.01

###

Record form. Attribute: IC50. Fill in for each entry.
- Tested on: Plasmodium falciparum
- test protocol: Antimalarial activity against chloroquine-sensitive Plasmodium falciparum Thai after 24 hrs
- Type: functional, organism-based
A number alone suffices; assume nM.

Prompt: // fetch Plasmodium falciparum IC50 for "CC(=O)O[C@H]1CC[C@]2(C)[C@H]3CC=C4[C@@H]5[C@@H](C)[C@H](C)CC[C@]5(C(=O)NCCCN5CCN(CCCN(Cc6ccc([N+](=O)[O-])cc6)Cc6ccc([N+](=O)[O-])cc6)CC5)CC[C@@]4(C)[C@]3(C)CC[C@H]2C1(C)C"
Response: 3050

Prompt: Likewise for "CCCN(CCC)CCCN1CCN(CCCNC(=O)[C@]23CC[C@@H](C)[C@H](C)[C@H]2C2=CC[C@@H]4[C@@]5(C)CC[C@H](OC(C)=O)C(C)(C)[C@@H]5CC[C@@]4(C)[C@]2(C)CC3)CC1" ?
Response: 1000

Prompt: Entry "CC(=O)O[C@H]1CC[C@]2(C)[C@H]3CC=C4[C@@H]5[C@@H](C)[C@H](C)CC[C@]5(C(=O)NCCCN5CCN(CCCNCc6ccc(O)cc6)CC5)CC[C@@]4(C)[C@]3(C)CC[C@H]2C1(C)C" please
Response: 180

###

Please provide measured pIC50 for the entries that follow.
- Tested on: Plasmodium falciparum
- test protocol: Antimalarial activity against chloroquine-resistant Plasmodium falciparum FcB1 after 24 hrs
- Type: functional, organism-based
- condition details: FcB1, 24 h
// pIC50 here means minus log10 of the molar concentration (mol/L)

Prompt: pIC50 lookup needed for "CCCN(CCC)CCCN1CCN(CCCNC(=O)[C@]23CC[C@@H](C)[C@H](C)[C@H]2C2=CC[C@@H]4[C@@]5(C)CC[C@H](OC(C)=O)C(C)(C)[C@@H]5CC[C@@]4(C)[C@]2(C)CC3)CC1" , thanks.
Response: 6.10

Prompt: "CC(=O)O[C@H]1CC[C@]2(C)[C@H]3CC=C4[C@@H]5[C@@H](C)[C@H](C)CC[C@]5(C(=O)NCCCN5CCN(CCCN(CC(C)C)CC(C)C)CC5)CC[C@@]4(C)[C@]3(C)CC[C@H]2C1(C)C" , same question.
Response: 4.73

Prompt: What do we get for "CC(=O)O[C@H]1CC[C@]2(C)[C@H]3CC=C4[C@@H]5[C@@H](C)[C@H](C)CC[C@]5(C(=O)NCCCN5CCN(CCCN)CC5)CC[C@@]4(C)[C@]3(C)CC[C@H]2C1(C)C" ?
Response: 6.77

Prompt: Repeat for the following molecule: "CC(=O)O[C@H]1CC[C@]2(C)[C@H]3CC=C4[C@@H]5[C@@H](C)[C@H](C)CC[C@]5(C(=O)NCCCN5CCN(CCCN(Cc6ccc([N+](=O)[O-])cc6)Cc6ccc([N+](=O)[O-])cc6)CC5)CC[C@@]4(C)[C@]3(C)CC[C@H]2C1(C)C"
Response: 5.45

Prompt: What would you report for "CC(=O)O[C@H]1CC[C@]2(C)[C@H]3CC=C4[C@@H]5[C@@H](C)[C@H](C)CC[C@]5(C(=O)NCCCN5CCN(CCCN(Cc6ccc(O)cc6)Cc6ccc(O)cc6)CC5)CC[C@@]4(C)[C@]3(C)CC[C@H]2C1(C)C" ?
Response: 6.80

Value source: ChEMBL document CHEMBL1143174
